Examples of molecules with documented Cell Viability 10 uM follow.
Tested on: HeLa
Experimental Parameters: 10 uM
Reported Endpoint: Cell Viability 10 uM

molecule="CCCCCCCNC(=O)ONc1ccn([C@@H]2O[C@H](CO)[C@H](O)C2O)c(=O)n1 (some centres unmarked) [drawing 90]" reported_endpoint="Cell Viability 10 uM" endpoint_result="151% ± 16% (n = 4)"
molecule="O=c1nc(NO)ccn1[C@@H]1O[C@H](CO)[C@H](O)C1O (some centres unmarked) [drawing 86]" reported_endpoint="Cell Viability 10 uM" endpoint_result="116% ± 24% (n = 4)"
molecule="CC(C)OC(=O)[C@H](C)NP(=O)(OC[C@H]1O[C@@H](n2ccc(NO)nc2=O)C(O)[C@H]1O)Oc1ccccc1 (some centres unmarked) [drawing 88]" reported_endpoint="Cell Viability 10 uM" endpoint_result="137% ± 16% (n = 4)"
molecule="CCCCCCCOC(=O)ONc1ccn([C@@H]2O[C@H](CO)[C@H](O)C2O)c(=O)n1 (some centres unmarked) [drawing 87]" reported_endpoint="Cell Viability 10 uM" endpoint_result="116% ± 20% (n = 4)"
molecule="O=c1nc(NO)c(F)cn1[C@@H]1O[C@H](CO)[C@H](O)C1O (some centres unmarked) [drawing 89]" reported_endpoint="Cell Viability 10 uM" endpoint_result="55% ± 4% (n = 4)"

The origin of these recorded values is patent US10874683B2.
